Entries and their measured GI50 follow.
system: MDA-MB-231; test: Antiproliferative activity against human MDA-MB-231 cells assessed as growth inhibition measured after 48 hrs by MTT assay; type: functional; conditions: MDA-MB-231, 48 h
Supply the numeric figure in nM, leaving out any unit text.

Example cases with answers are listed next.
## Task Look at this molecule and give its reported GI50. CC(=O)O[C@@H](C)/C=C\C(=O)N[C@@H]1C[C@H](C)[C@H](C/C=C(C)/C=C/[C@H]2O[C@](C)(O)C[C@@]3(CO3)[C@@H]2O)O[C@@H]1C
## Result 2.1

## Task Next up: CC(=O)O[C@@H](C)/C=C\C(=O)N[C@@H]1C[C@H](C)[C@H](C/C=C(C)/C=C/[C@H]2O[C@H](CC(=O)O)C[C@@](O)(CCl)[C@@H]2O)O[C@@H]1C
## Result 6.22

## Task # repeat for CC(/C=C/[C@H]1O[C@H](CC(=O)O)C[C@@](O)(CCl)[C@@H]1O)=C\C[C@@H]1O[C@H](C)[C@H](NC(=O)/C=C\[C@H](C)OC(=O)C(C)C)C[C@@H]1C
## Result 8.82

Then this molecule:
## Task Using the record for CC(=O)O[C@@H](C)/C=C\C(=O)N[C@@H]1C[C@H](C)[C@H](C/C=C(C)/C=C/[C@H]2O[C@H](CC(=O)O)C[C@@]3(CO3)[C@@H]2O)O[C@@H]1C , report its GI50.
## Result 2.58

====

Each entry below lists one item and its recorded half-life value.
test: Stability of the compound in phosphate buffer at pH 7.4 at 37 degC by HPLC; format: physicochemical
The figure you give is taken to be in h; do not add the unit.

Illustrative cases are given below, each with its answer.
## Task For the compound shown here, CC(=O)O[C@@H](C)/C=C\C(=O)N[C@@H]1C[C@H](C)[C@H](C/C=C(C)/C=C/[C@H]2O[C@H](CC(=O)O)C[C@@](O)(CCl)[C@@H]2O)O[C@@H]1C , give the reported half-life.
## Result 19

## Task Next record, please: CC(/C=C/[C@H]1O[C@H](CC(=O)O)C[C@@](O)(CCl)[C@@H]1O)=C\C[C@@H]1O[C@H](C)[C@H](NC(=O)/C=C\[C@H](C)OC(=O)C(C)C)C[C@@H]1C
## Result 25

// next entry
## Task What measured half-life goes with CC(=O)O[C@@H](C)/C=C\C(=O)N[C@@H]1C[C@H](C)[C@H](C/C=C(C)/C=C/[C@H]2O[C@](C)(O)C[C@@]3(CO3)[C@@H]2O)O[C@@H]1C ?
## Result 8

====

system: DU-145; assay: Antiproliferative activity against human DU145 cells assessed as growth inhibition measured after 48 hrs by MTT assay; format: functional; conditions: DU-145, 48 h
parameter: GI50

## Task // query GI50 value for entry CC(=O)O[C@@H](C)/C=C\C(=O)N[C@@H]1C[C@H](C)[C@H](C/C=C(C)/C=C/[C@H]2O[C@](C)(O)C[C@@]3(CO3)[C@@H]2O)O[C@@H]1C
## Result 1.05 nM

## Task Try CC(/C=C/[C@H]1O[C@H](CC(=O)O)C[C@@](O)(CCl)[C@@H]1O)=C\C[C@@H]1O[C@H](C)[C@H](NC(=O)/C=C\[C@H](C)OC(=O)C(C)C)C[C@@H]1C [THAILANSTATIN C] next.
## Result 2.98 nM

## Task # iterate: CC(=O)O[C@@H](C)/C=C\C(=O)N[C@@H]1C[C@H](C)[C@H](C/C=C(C)/C=C/[C@H]2O[C@H](CC(=O)O)C[C@@](O)(CCl)[C@@H]2O)O[C@@H]1C [THAILANSTATIN B]
## Result 3 nM

Continuing:
## Task # input molecule: CC(=O)O[C@@H](C)/C=C\C(=O)N[C@@H]1C[C@H](C)[C@H](C/C=C(C)/C=C/[C@H]2O[C@H](CC(=O)O)C[C@@]3(CO3)[C@@H]2O)O[C@@H]1C [THAILANSTATIN A] ; wanted: its GI50
## Result 1.11 nM
